For Staphylococcus aureus ATCC 43300, measured MIC is reported for the entries below.
Give the value, in units of µM, as a plain number.

Example entries begin here.
C[C@@H]1NC(=O)[C@@H](N)CSSC[C@@H](C(=O)N[C@@H](CCCN=C(N)N)C(=O)N[C@@H](Cc2c[nH]c3ccccc23)C(=O)N[C@@H](Cc2c[nH]c3ccccc23)C(=O)N[C@@H](Cc2c[nH]c3ccccc23)C(=O)N[C@@H](CCCN=C(N)N)C(=O)N[C@@H](CCCN=C(N)N)C(N)=O)NC(=O)[C@H](Cc2ccccc2)NC(=O)[C@H](Cc2ccc(O)cc2)NC(=O)[C@H](CO)NC1=O [CASYFCRWWWRR]	4
CC[C@H](C)[C@H](NC(=O)CNC(=O)[C@@H](NC(=O)[C@H](Cc1c[nH]c2ccccc12)NC(=O)[C@@H](NC(=O)CNC(=O)[C@@H](NC(=O)[C@H](CCCCN)NC(=O)[C@@H](N)CCCCN)[C@@H](C)CC)[C@@H](C)CC)[C@@H](C)CC)C(=O)N[C@@H](CCCCN)C(=O)N[C@@H](CCCCN)C(N)=O [KKIGIWIGIKK]	16

Attention now turns to another entry.
Assign MIC to the following record: NC(=O)[C@H](CCCN=C(N)N)NC(=O)[C@H](CCCN=C(N)N)NC(=O)[C@H](Cc1c[nH]c2ccccc12)NC(=O)[C@H](Cc1ccc(O)cc1)NC(=O)[C@H](Cc1c[nH]c2ccccc12)NC(=O)[C@H](Cc1c[nH]c2ccccc12)NC(=O)[C@H](Cc1c[nH]c2ccccc12)NC(=O)[C@H](Cc1ccc(O)cc1)NC(=O)[C@H](Cc1c[nH]c2ccccc12)NC(=O)[C@H](CCCN=C(N)N)NC(=O)[C@@H](N)CCCN=C(N)N [RRWYWWWYWRR]
8
